Taken from paper PMC10388363.

ASSAY: Cell viability / cell death in healthy HaCaT cells
Format: cell-based, human
TEST_CONDITIONS: human, HaCaT cells (healthy keratinocytes); HaCaT, 5 μM, 48 h; read-out: Cell viability (%) T48
MEASUREMENT_NAME: viability at 48 h, 5 µM
Entry format: amount then unit.

Answer with reported viability at 48 h, 5 µM of `CCOC(=O)C1=CN(C(=O)c2cc(OC)cc(OC)c2)C=C(C(=O)OCC)C1c1ccccc1`
83.9%

----------
ASSAY: Cell viability / cell death in healthy HaCaT cells
Type: cell-based, human
TEST_CONDITIONS: human, HaCaT cells (healthy keratinocytes); HaCaT, 5 μM, 24 h; read-out: Cell viability (%) T24
MEASUREMENT_NAME: viability at 24 h, 5 µM (%)
Numeric only. Scale: %

Provide only the value of recorded viability at 24 h, 5 µM for CCOC(=O)C1=CN(C(=O)c2cc(OC)cc(OC)c2)C=C(C(=O)OCC)C1c1ccccc1 [Compound 3d]
96.1

----------
Reported Kd values are given for each entry in this list.
TESTED_ON: human SIRT3 (Homo sapiens, UniProt Q9NTG7)
Sequence (Q9NTG7 114-380): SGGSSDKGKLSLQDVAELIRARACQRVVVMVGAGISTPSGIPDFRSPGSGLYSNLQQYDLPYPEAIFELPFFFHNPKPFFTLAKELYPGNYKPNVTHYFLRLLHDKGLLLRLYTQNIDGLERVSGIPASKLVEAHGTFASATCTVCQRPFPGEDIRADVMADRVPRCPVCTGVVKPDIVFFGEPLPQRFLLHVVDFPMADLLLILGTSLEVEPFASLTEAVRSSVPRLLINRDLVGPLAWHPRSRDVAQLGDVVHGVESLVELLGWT

Return Kd (reported value) for this compound: CCOC(=O)C1=CN(C(=O)c2ccccc2)C=C(C(=O)OCC)C1c1ccccc1 [Compound 2]
40 to 47 µM

Let me know recorded Kd for C=CCc1ccc(O)c(-c2ccc(O)c(CC=C)c2)c1 [honokiol] , thanks.
40 to 47 µM

Give the measured Kd for CCOC(=O)C1=CN(C(=O)c2ccc(OC)c(OC)c2)C=C(C(=O)OCC)C1c1ccccc1 [Compound 3c]
29 µM

Query Kd for CCOC(=O)C1=CN(C(=O)c2cc(OC)c(OC)c(OC)c2)C=C(C(=O)OCC)C1c1ccccc1 [Compound 3]
40 to 47 µM

----------
Tested on: GDH activity in MDA-MB-231 cells
ASSAY: GDH activity assay in lysates of treated MDA-MB-231 cells
Format: cell-based, human
TEST_CONDITIONS: 50 μM, 4 h
MEASUREMENT_NAME: effect on GDH activity in cell lysates

CCOC(=O)C1=CN(C(=O)c2ccc(OC)c(OC)c2)C=C(C(=O)OCC)C1c1ccccc1	increase in GDH activity
CCOC(=O)C1=CN(C(=O)c2cc(OC)cc(OC)c2)C=C(C(=O)OCC)C1c1ccccc1	increase in GDH activity
CCOC(=O)C1=CN(C(=O)c2cccc(OC)c2)C=C(C(=O)OCC)C1c1ccccc1	increase in GDH activity
